# PROCEDURE TEXT: self-splicing fitness, log relative to wild type (ln ratio); higher = more splicing; Tetrahymena group I intron in knt gene, E. coli kanamycin selection, DiMSum; sequences stand for … in CUCUCU…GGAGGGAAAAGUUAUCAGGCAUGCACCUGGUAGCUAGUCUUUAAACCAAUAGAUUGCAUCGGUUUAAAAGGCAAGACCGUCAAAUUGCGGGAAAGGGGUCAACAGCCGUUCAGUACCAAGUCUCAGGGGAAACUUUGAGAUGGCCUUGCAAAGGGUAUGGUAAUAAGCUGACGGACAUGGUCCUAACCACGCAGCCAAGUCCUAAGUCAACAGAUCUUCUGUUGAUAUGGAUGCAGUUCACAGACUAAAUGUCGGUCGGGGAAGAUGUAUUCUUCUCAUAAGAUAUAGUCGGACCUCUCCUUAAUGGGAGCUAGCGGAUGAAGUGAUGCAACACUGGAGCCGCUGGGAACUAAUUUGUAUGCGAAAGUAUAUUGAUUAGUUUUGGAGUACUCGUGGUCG;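 also: selection with 25 µg/mL kanamycin versus none on LB agar overnight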
# CONDITION NOTES: 37 °C
Values of self-splicing fitness (ln) greater than or equal to -0.6 map to T; values below map to F.

Request: Given the entry CCGCAGCAAUAUUACGUAUG , answer whether its self-splicing fitness (ln) meets or surpasses -0.6.
Response: T

Request: Answer whether self-splicing fitness (ln) of UUAUAGCAAUAUUACGUCUG is greater than or equal to -0.6.
Response: T
